Below, each of the molecules is paired with its reported hEphB1-SEAP-: absorbance at 450 nm, percentage with respect to hEphA4-SEAP-His as 100% value.
- system: T1, human EphB1 (Homo sapiens, UniProt P54762)
- T1 construct: a protein of the extracellular region of each human Eph receptor fused with the SEAP protein and the His tag; made in house; host or cells: Expi293F cells (culture supernatant)
- T1 sequence (P54762 18-540 limits assumed): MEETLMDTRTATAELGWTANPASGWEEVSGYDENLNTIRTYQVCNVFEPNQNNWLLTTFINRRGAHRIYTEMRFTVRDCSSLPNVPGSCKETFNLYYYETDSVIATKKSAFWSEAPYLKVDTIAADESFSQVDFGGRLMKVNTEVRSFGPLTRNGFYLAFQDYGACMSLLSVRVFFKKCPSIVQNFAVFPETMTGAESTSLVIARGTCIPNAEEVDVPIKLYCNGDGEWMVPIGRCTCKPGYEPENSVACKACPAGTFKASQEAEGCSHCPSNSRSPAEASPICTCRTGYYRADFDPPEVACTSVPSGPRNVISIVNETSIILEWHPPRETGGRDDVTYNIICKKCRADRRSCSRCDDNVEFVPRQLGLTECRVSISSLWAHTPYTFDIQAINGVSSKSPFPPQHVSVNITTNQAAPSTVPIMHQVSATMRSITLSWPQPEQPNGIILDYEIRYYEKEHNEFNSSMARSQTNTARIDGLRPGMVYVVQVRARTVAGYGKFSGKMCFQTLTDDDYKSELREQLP
- assay.overview: Selectivity ELISA of humanized antibodies for human Eph receptor
- Format: binding
- condition.parameters: coated protein 1 nM
test.readout: hEphB1-SEAP-: absorbance at 450 nm, percentage with respect to hEphA4-SEAP-His as 100% (%)

| molecule | units | measured.number |
| --- | --- | --- |
| 89 (antibody, V domains shown, constant regions without entry; synthetic humanized antibody light chain variable region sequence; synthetic humanized antibody heavy chain variable region sequence) VL: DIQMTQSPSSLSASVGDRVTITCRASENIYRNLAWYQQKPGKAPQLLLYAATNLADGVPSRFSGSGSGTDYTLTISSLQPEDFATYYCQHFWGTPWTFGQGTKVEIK VH: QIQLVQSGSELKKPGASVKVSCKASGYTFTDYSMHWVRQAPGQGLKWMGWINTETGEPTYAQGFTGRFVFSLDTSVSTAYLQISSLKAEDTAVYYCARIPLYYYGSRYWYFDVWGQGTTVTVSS | % | 5.7 |
| 92 (antibody, V domains shown, constant regions without entry; synthetic humanized antibody light chain variable region sequence; synthetic humanized antibody heavy chain variable region sequence) VL: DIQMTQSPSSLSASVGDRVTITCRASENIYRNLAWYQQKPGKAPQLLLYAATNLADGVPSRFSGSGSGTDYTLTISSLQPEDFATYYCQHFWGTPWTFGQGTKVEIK VH: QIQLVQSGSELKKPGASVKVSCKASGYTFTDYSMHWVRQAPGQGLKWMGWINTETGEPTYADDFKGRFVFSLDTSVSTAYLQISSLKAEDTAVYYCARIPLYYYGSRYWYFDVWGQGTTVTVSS | % | 6.9 |
| 145 (antibody, V domains shown, synthetic humanized antibody heavy chain variable region sequence; synthetic humanized antibody light chain variable region sequence) VH: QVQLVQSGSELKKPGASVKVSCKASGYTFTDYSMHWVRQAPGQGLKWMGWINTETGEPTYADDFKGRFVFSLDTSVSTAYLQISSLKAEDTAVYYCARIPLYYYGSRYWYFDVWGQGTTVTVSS VL: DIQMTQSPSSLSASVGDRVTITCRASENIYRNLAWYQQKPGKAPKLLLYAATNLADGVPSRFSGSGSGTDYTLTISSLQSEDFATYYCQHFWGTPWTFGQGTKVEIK | % | 6.5 |
| 157 (antibody, V domains shown, synthetic humanized antibody heavy chain variable region sequence; synthetic humanized antibody light chain variable region sequence) VH: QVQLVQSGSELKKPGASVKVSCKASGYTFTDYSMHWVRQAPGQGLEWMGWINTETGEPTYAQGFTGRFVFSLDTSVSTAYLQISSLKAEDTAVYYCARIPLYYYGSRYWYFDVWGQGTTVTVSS VL: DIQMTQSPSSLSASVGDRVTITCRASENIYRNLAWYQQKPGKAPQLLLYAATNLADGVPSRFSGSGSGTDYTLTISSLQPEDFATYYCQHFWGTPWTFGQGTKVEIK | % | 6.1 |
